Recorded values, source PubChem BioAssay (EPA / NIEHS).

- Read-out: Interleukin-8 (IL8), CXCL8 (gene 3576)
- Method: BSK_3C_IL8: BioMAP Diversity Plus: 3C Assay for Interleukin-8 (IL8) Biomarker Activity (AID 2283020)
- Experimental Parameters: primary human endothelial cells (HUVEC); actives raise or lower the signal
- Experimental: BSK_3C is a cell-based, multiplexed-readout assay that uses umbilical vein endothelium, a human vascular primary cell, with measurements taken at 24 hours after chemical dosing in a 96-well plate.BSK_3C_IL8 is an assay component measured in the BSK_3C assay. It measures IL-8 antibody related to regulation of gene expression using ELISA technology.Data from the assay component BSK_3C_IL8 was analyzed into 1 assay endpoint. […]
Calls of active or inactive are those of the source. The calls were made as follows: active = hit-call score of the fitted dose curve at least 0.9, where 1 is the maximum; inactive = score below 0.9.
Outcome (select one): 1 = active, 0 = inactive

# count of solved cases: 6
>>> discrete_label("O=C(O)COc1cc(Cl)c(Cl)cc1Cl")
0
>>> discrete_label("Oc1c(Br)cc(Br)cc1Br")
0
>>> discrete_label("CCOP(=O)(OCC)OC(=CCl)c1ccc(Cl)cc1Cl")
1
>>> discrete_label("CC(C)O.CC(C)O.OCCN(CCO)CCO.OCCN(CCO)CCO.[Ti]")
0
>>> discrete_label("N#Cc1cccnc1")
0
>>> discrete_label("OC(Cc1ccccc1Cl)(Cn1cncn1)C1(Cl)CC1 (configuration not stated)")
0

Identify the outcome logged in this assay for the compound shown: CN(C)C(=S)S
0

---

- Target Under Test: human Tyrosine Protein Kinase Receptor Tie-2 (Tie2), TEK (gene 7010) (UniProt Q02763)
- Sequence (Q02763 whole entry, looked up): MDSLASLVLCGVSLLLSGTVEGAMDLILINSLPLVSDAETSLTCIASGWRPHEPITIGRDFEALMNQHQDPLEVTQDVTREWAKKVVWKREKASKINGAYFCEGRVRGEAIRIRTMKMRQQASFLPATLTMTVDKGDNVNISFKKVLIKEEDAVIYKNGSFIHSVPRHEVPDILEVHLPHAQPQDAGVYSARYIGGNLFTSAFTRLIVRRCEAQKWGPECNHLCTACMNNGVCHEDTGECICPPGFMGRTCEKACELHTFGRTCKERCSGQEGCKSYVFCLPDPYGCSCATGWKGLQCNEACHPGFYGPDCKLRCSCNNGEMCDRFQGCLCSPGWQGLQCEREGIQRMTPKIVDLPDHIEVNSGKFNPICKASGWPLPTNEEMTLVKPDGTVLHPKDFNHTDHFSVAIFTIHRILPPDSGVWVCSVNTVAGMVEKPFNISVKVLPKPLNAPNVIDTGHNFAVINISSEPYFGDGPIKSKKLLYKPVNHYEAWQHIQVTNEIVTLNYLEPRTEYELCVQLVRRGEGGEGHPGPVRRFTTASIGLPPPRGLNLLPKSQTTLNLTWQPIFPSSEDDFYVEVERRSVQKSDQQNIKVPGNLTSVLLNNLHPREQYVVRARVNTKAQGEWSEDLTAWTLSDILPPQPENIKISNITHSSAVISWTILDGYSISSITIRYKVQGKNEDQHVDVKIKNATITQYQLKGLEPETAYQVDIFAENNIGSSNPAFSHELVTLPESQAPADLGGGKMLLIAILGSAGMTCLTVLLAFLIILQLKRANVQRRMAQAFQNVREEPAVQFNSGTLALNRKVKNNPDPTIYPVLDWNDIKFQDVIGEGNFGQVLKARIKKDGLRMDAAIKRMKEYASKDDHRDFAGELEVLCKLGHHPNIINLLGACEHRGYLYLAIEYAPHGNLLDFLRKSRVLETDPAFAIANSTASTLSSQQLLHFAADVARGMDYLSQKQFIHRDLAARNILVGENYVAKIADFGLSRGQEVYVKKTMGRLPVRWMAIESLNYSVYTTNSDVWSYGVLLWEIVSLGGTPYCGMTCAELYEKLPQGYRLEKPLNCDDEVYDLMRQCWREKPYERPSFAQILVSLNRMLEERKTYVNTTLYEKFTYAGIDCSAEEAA
- Method: NVS_ENZ_hTie2: NovaScreen (NVS) Enzymatic Assay for human Tyrosine Protein Kinase Receptor Tie-2 (Tie2) (AID 2283225)
Records with an inconclusive call do not appear. Activity calls are given as the source filed them. Rule for the calls: active = hit-call score of the fitted dose curve at least 0.9, where 1 is the maximum; inconclusive = response in the unintended direction; inactive = score below 0.9.
Outcome (select one): active, inactive

>>> discrete_label("Clc1cccc(Cl)c1Cl")
"inactive"
>>> discrete_label("O=C(N[C@H]1CN2CCC1CC2)c1ccc2c(c1)OCCO2")
"inactive"
>>> discrete_label("COc1nn(C(=O)NS(=O)(=O)c2ccccc2OC(F)(F)F)c(=O)n1C")
"active"
>>> discrete_label("CCCCCCCCCCCCc1cccc(S(=O)(=O)O)c1")
"active"

Identify the outcome logged in this assay for the compound shown: CC(C)O.CC(C)O.OCCN(CCO)CCO.OCCN(CCO)CCO.[Ti]
active

Then what about the compound O=C1c2ccccc2C(=O)C1C(=O)C(c1ccccc1)c1ccc(Cl)cc1 (stereo unspecified) ?
active

---

- Target Under Test: Myc proto-oncogene protein (Homo sapiens) (UniProt P01106)
- Sequence (P01106 whole entry, looked up): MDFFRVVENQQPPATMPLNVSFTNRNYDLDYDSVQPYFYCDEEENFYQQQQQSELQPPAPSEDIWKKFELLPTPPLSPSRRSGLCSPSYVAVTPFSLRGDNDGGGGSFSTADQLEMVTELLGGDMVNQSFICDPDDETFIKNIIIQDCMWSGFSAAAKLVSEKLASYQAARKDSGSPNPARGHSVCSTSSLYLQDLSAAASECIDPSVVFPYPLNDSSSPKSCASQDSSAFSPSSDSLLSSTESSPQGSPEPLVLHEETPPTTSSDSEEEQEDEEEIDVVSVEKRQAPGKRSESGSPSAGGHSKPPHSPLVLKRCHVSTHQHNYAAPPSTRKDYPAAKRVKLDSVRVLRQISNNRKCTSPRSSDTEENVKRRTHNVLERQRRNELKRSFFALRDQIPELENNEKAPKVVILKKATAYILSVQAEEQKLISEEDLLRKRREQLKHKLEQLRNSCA
- Method: ATG_Myc_CIS: Attagene CIS-FACTORIAL HepG2 Assay for human Myelocytomatosis (Myc) Proto-Oncogene Transcription Factor (AID 2282990)
- Experimental Parameters: HepG2, Attagene cis-reporter transcription factor activity; actives raise or lower the signal
Calls of active or inactive are those of the source. Rule for the calls: active = hit-call score of the fitted dose curve at least 0.9, where 1 is the maximum; inactive = score below 0.9.
Outcome (select one): active, inactive

# count of solved cases: 2
>>> discrete_label("Clc1cc(C(Cl)(Cl)Cl)cnc1Cl")
"active"
>>> discrete_label("O=NN1CCOCC1")
"inactive"

Identify the outcome logged in this assay for the compound shown: C=C(C)C(=O)OCC(CC)CCCC (stereo not given)
inactive

Then what about the compound Brc1ccc(Oc2c(Br)cc(Br)cc2Br)c(Br)c1 ?
inactive

Then what about the compound CCCCCCCCCCCCCCC(Br)C(=O)O (stereo not given) ?
inactive

Then what about the compound CCN(N=O)C(N)=O ?
inactive

Then what about the compound Cl[C@H]1OCCO[C@@H]1Cl ?
inactive

Then what about the compound CC(C)CP(=S)(S)CC(C)C ?
inactive

Then what about the compound CC(C)(COCC1CO1)COCC1CO1 (stereo not given) ?
inactive

Then what about the compound C#CCOC(=O)/C=C(C)/C=C/CC(C)CCCC(C)C (stereo not given) ?
inactive

---

- Target Under Test: Aryl hydrocarbon receptor (Homo sapiens)
- Method: ATG_Ahr_CIS: Attagene CIS-FACTORIAL HepG2 Assay for human Aryl Hydrocarbon Receptor (Ahr) (AID 2282930)
- Experimental Parameters: HepG2 AhR cis-factorial reporter transcription; actives raise or lower the signal
The source made the active and inactive calls. How the source made its calls: active means hit-call score of the fitted dose curve at least 0.9, where 1 is the maximum; inactive means score below 0.9.
Outcome (select one): active, inactive

>>> discrete_label("C=CCc1ccccc1O")
"inactive"

Identify the outcome logged in this assay for the compound shown: CCCCC(CC)COC(=O)Cl (stereo unspecified)
inactive

Then what about the compound Brc1ccc(Br)cc1 ?
inactive

Then what about the compound C=CCN=C=S ?
inactive

Then what about the compound CCC(C)(C#N)N=NC(C)(C#N)CC (stereo unspecified) ?
inactive

Then what about the compound Cc1ccc(CCl)cc1 ?
inactive

---

- Method: ATG_NRF2_ARE_CIS: Attagene CIS-FACTORIAL HepG2 Assay for human Nuclear Factor Erythroid 2 Related Factor 2 (NFR2) response to Antioxidant Response Elements (ARE) (AID 2282992)
- Experimental Parameters: HepG2 Attagene ARE/NRF2 reporter, transcription factor activity; actives raise or lower the signal
The source made the active and inactive calls. How the source made its calls: active means hit-call score of the fitted dose curve at least 0.9, where 1 is the maximum; inactive means score below 0.9.
Outcome (select one): active, inactive

>>> discrete_label("Brc1ccc(Oc2c(Br)cc(Br)cc2Br)c(Br)c1")
"inactive"

Identify the outcome logged in this assay for the molecule shown: CCCCOC(C)=O
inactive

Then what about the molecule C[CH2][Hg][S]c1ccccc1C(=O)O ?
active

Then what about the molecule CNC(=O)CSP(=O)(OC)OC ?
inactive

Then what about the molecule C=CCc1ccccc1O ?
inactive

Then what about the molecule CC(C)=CC1C(C(=O)OCc2cccc(Oc3ccccc3)c2)C1(C)C (centres undefined) ?
inactive

---

- Method: CCTE_Shafer_MEA_dev_per_burst_spike_percent: CCTE's Neural Network Formation Assay for Percent of Spikes in a Burst, Shafer Lab (AID 2284032)
- Experimental: CCTE_Shafer_MEA_dev assay is conducted using Axion Biosystems 48 well microelectrode array (MEA) plates and Maestro recording system. Each well of the MEA plate contains a grid of 16 microelectrodes embedded in the culture surface. Electrically active cells, such as neurons, can be cultured over the electrodes, and electrical activity in these cells can be recorded extracellularly. […]
Activity calls are given as the source filed them. How the source made its calls: active means hit-call score of the fitted dose curve at least 0.9, where 1 is the maximum; inactive means score below 0.9.
Outcome (select one): active, inactive

# count of solved cases: 7
>>> discrete_label("CC1(C)[C@H](C(=O)O[C@H](C#N)c2cccc(Oc3ccccc3)c2)[C@@H]1/C=C(\\Cl)C(F)(F)F")
"active"
>>> discrete_label("C=CCOC(F)(C(F)(F)F)C(F)(F)F")
"inactive"
>>> discrete_label("O=S(=O)(F)C(F)(F)C(F)(F)C(F)(F)C(F)(F)F")
"inactive"
>>> discrete_label("Cc1ccccc1OP(=O)(Oc1ccccc1C)Oc1ccccc1C")
"active"
>>> discrete_label("CS(=O)(=O)c1ccc(C(=O)C2C(=O)CCCC2=O)c(Cl)c1COCC(F)(F)F")
"inactive"
>>> discrete_label("OC(Cc1ccccc1Cl)(Cn1[nH]cnc1=S)C1(Cl)CC1 (stereo not drawn)")
"active"
>>> discrete_label("CC(C)[C@@H](Nc1ccc(C(F)(F)F)cc1Cl)C(=O)OC(C#N)c1cccc(Oc2ccccc2)c1 (stereo partly drawn)")
"inactive"

Identify the outcome logged in this assay for the compound shown: C=CC(F)(C(F)(F)F)C(F)(F)C(F)(F)F (stereo not drawn)
inactive

---

- Read-out: growth arrest and DNA damage 45 (GADD45B), GADD45B (gene 4616)
- Method: LTEA_HepaRG_GADD45B: Life Technologies and Expression Analysis (LTEA) Assay for growth arrest and DNA damage 45 (GADD45B) using HepaRG (AID 2283461)
- Experimental Parameters: mRNA level, 48 h; actives raise or lower the signal
Activity calls are given as the source filed them. Rule for the calls: active = hit-call score of the fitted dose curve at least 0.9, where 1 is the maximum; inactive = score below 0.9.
Outcome (select one): active, inactive

# count of solved cases: 5
>>> discrete_label("O=C(N[C@H]1CN2CCC1CC2)c1ccc2c(c1)OCCO2")
"inactive"
>>> discrete_label("Cc1cc(C)cc(C)c1")
"inactive"
>>> discrete_label("CC(C)(C)c1ccccc1O")
"inactive"
>>> discrete_label("Oc1cc(Cl)c(Cl)cc1Cl")
"inactive"
>>> discrete_label("O=C(O)C1(c2ccc3c(c2)OC[C@H](Cc2ccc(-c4ccccc4)cc2)[C@H]3O)CCCC1")
"active"

Identify the outcome logged in this assay for the compound shown: CC(C)O.CC(C)O.OCCN(CCO)CCO.OCCN(CCO)CCO.[Ti]
inactive

Then what about the compound OCCN(CCO)CCO ?
inactive

Then what about the compound N#Cc1cccnc1 ?
inactive

Then what about the compound Clc1cccc(Cl)c1 ?
inactive

---

- Target Under Test: Hepatocyte nuclear factor 6 (Homo sapiens) (UniProt Q9UBC0)
- Sequence (Q9UBC0 whole entry, looked up): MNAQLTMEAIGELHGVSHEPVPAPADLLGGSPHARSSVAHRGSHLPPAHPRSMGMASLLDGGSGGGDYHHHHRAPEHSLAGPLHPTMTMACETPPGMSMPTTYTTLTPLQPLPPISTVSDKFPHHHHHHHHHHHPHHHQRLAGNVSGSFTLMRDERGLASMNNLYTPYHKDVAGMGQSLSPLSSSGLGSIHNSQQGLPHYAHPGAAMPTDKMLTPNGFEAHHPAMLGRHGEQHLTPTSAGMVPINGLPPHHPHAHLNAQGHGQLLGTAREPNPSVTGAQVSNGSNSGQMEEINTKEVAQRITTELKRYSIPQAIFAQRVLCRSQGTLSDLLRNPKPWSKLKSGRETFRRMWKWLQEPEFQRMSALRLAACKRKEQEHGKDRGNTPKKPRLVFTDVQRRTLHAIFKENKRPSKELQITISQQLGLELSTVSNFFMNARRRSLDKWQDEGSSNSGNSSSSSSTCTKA
- Method: ATG_HNF6_CIS: Attagene CIS-FACTORIAL HepG2 Assay for human Hepatocyte Nuclear Factor 6 (HNF6) (AID 2282952)
- Experimental Parameters: HepG2 Attagene cis-factorial HNF6 reporter transcription; actives raise or lower the signal
The source made the active and inactive calls. Rule for the calls: active = hit-call score of the fitted dose curve at least 0.9, where 1 is the maximum; inactive = score below 0.9.
Endpoint Name: outcome

>>> result("C=C(C)C(=O)OCCCCOC(=O)C(=C)C")
"inactive"
>>> result("C=CCOC(N)=O")
"inactive"
>>> result("O=NN1CCOCC1")
"inactive"
>>> result("Cc1cc(Cl)ccc1N")
"inactive"
>>> result("CCCCOC(C)=O")
"inactive"
>>> result("Cc1ccc2nc3sc(=O)sc3nc2c1")
"inactive"
>>> result("Clc1cccc(Cl)c1")
"inactive"
>>> result("O=S(=O)(c1ccc(Cl)cc1)c1cc(Cl)c(Cl)cc1Cl")
"inactive"

For the record OC(Cc1ccccc1Cl)(Cn1[nH]cnc1=S)C1(Cl)CC1 (centres undefined) , what value of outcome is listed for Hepatocyte nuclear factor 6 (Homo sapiens) (UniProt Q9UBC0)?
inactive

Then what about the molecule CN(N=O)c1ccc([N+](=O)[O-])cc1 ?
inactive

Then what about the molecule CC(C)[C@H](C(=O)OC(C#N)c1cccc(Oc2ccccc2)c1)c1ccc(OC(F)F)cc1 (some centres undefined) ?
inactive

Then what about the molecule CS(=O)(=O)c1ccc(C(=O)C2C(=O)CCCC2=O)c(Cl)c1COCC(F)(F)F ?
inactive

Then what about the molecule O=C(N[C@H]1CN2CCC1CC2)c1ccc2c(c1)OCCO2 ?
inactive

Then what about the molecule O=C1C=CC(=O)c2ccccc21 ?
inactive
